Reference source: patent US6407104B1

Reported melting point by item:
Counter-ions that a name gives are not always drawn.
RECORDED_METRIC: melting point

CCc1c(C(=O)C(N)=O)c2c(OCC(=O)O)nc(C)cn2c1Cc1ccccc1-c1ccsc1 (as salt: Na)    260 to 263 °C
CCc1c(C(=O)C(N)=O)c2c(OCC(=O)OC)nc(C(C)C)cn2c1Cc1ccccc1    190 to 191 °C
CCc1c(C(=O)C(N)=O)c2c(OCC(=O)O)nc(C)cn2c1Cc1ccccc1-c1ccc(F)cc1    175 to 177 °C
CCc1c(C(=O)C(N)=O)c2c(OCC(=O)O)nc(C3CCCCC3)cn2c1Cc1ccccc1    227 to 230 °C
CCc1c(C(=O)C(N)=O)c2c(OCC(=O)OC)nc(C)cn2c1Cc1cccc(-c2ccc(C)s2)c1    179.5 to 181 °C
CCc1c(C(=O)C(N)=O)c2c(OCC(=O)O)nc(C)cn2c1Cc1ccccc1-c1ccccc1    192 to 194 °C
CCc1c(C(=O)C(N)=O)c2c(OCC(=O)O)nc(C)cn2c1Cc1ccccc1F    218 to 219 °C
CCc1c(C(=O)C(N)=O)c2c(OCC(=O)O)nc(C(C)C)cn2c1Cc1ccccc1    211 to 213 °C
CCc1c(C(=O)C(N)=O)c2c(OCC(=O)O)nc(C)cn2c1Cc1ccccc1C(=O)c1ccccc1    131 to 133 °C
CCc1c(C(=O)C(N)=O)c2c(OCC(=O)O)nccn2c1Cc1cccs1    225 to 227 °C
CCc1c(C(=O)C(N)=O)c2c(OCC(=O)O)nc(C)cn2c1Cc1ccc(F)cc1 (as salt: Na) [Compound I-99]    250 to 265 °C
CCc1c(C(=O)C(N)=O)c2c(OCC(=O)O)nc(CC(C)C)cn2c1Cc1ccccc1    216 to 217 °C
CCc1c(C(=O)C(N)=O)c2c(OCC(=O)O)nc(Cc3ccccc3)cn2c1Cc1ccccc1    200 to 202 °C
CCCOC(=O)COc1nc(C)cn2c(Cc3ccc(F)cc3)c(CC)c(C(=O)C(N)=O)c12    182 to 183 °C
CCc1c(C(=O)C(N)=O)c2c(OCC(=O)OC)nc(Cc3ccccc3)cn2c1Cc1ccccc1    178 to 180 °C
CCc1c(C(=O)C(N)=O)c2c(OCC(=O)OC)nccn2c1CC1CCCC1    165 to 166 °C
CCc1c(C(=O)C(N)=O)c2c(OCC(=O)OCCN3CCOCC3)nc(C)cn2c1Cc1ccc(F)cc1    139 to 140 °C
CCc1c(C(=O)C(N)=O)c2c(OCC(=O)OC)nc(C)cn2c1Cc1ccc(F)cc1F    161 to 163 °C
CCc1c(C(=O)C(N)=O)c2c(OCC(=O)O)nc(C)cn2c1Cc1ccccc1-c1ccc(C)cc1    179.5 to 181.5 °C
CCc1cn2c(Cc3ccccc3)c(CC)c(C(=O)C(N)=O)c2c(OCC(=O)OC)n1    154 to 156 °C
CCc1c(C(=O)C(N)=O)c2c(OCC(=O)OC)nc(C3CCCCC3)cn2c1Cc1ccccc1    193 to 194 °C
Cc1c(C(=O)C(N)=O)c2c(OCC(=O)O)nccn2c1Cc1ccccc1    207 to 208 °C
